Hello, the source for this data is patent US20060241051A1, in case you need it.

Please go through the items and note down their intracellular Ca ion level-increasing activity (FLIPR).
Molecular target: human OT7T175 (metastin receptor) (human, UniProt Q969F8 1-398)
Sequence (Q969F8 whole entry L364H): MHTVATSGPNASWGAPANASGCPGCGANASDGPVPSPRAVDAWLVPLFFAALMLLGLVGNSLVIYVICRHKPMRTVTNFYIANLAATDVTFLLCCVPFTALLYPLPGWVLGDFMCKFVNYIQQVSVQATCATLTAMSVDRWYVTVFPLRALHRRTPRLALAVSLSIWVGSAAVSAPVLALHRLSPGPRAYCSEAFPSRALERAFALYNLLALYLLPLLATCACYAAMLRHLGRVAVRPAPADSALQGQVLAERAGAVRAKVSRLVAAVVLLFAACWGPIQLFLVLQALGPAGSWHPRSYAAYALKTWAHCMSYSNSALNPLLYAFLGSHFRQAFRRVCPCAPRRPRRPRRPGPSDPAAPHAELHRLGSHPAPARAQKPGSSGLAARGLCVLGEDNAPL
Assay: cell-based or functional assay
Square brackets hold non-standard residues; d marks the D form. Primed or numbered codes have the meaning given here. Ends that are not written are not given here. * marks the point of attachment. Propanoyl(3-indol-3-yl) = O=C(CCc1c[nH]c2ccccc12)*; Phe(4-Cl) = N[C@@H](Cc1ccc(Cl)cc1)C(=O)O; Cyclohexanecarbonyl = O=C(C1CCCCC1)*; Arg(Me) = CNC(=N)NCCC[C@H](N)C(=O)O; Diphenylacetyl′ = not defined here; d3Pal = N[C@H](Cc1cccnc1)C(=O)O; Cha = N[C@@H](CC1CCCCC1)C(=O)O; azaGly = NNC(=O)O

Enquiry: Query (binder): [dY]N[Phe(4-Cl)]NSF[azaGly]L[Arg(Me)]F-NH2 [Compound No. 249: [D-Tyr1,Phe(4Cl) 3,AzaGly7,Arg(Me)9]MS10] ; field requested: intracellular Ca ion level-increasing activity (FLIPR)
Return: 1 specific activity to metastin (1-54)

Enquiry: Query (binder): {Diphenylacetyl′}-NSF[azaGly]L[Arg(Me)]F-NH2 [Compound No. 268: des(1-3)-Diphenylacetyl-[AzaGly7,Arg(Me)9]MS10] ; field requested: intracellular Ca ion level-increasing activity (FLIPR)
Return: 1 specific activity to metastin (1-54)

Enquiry: Query (binder): [dY]NFNSF[azaGly]L[Arg(Me)]F-NH2 [Compound No. 244: [D-Tyr1,Phe3,AzaGly7,Arg(Me)9]MS10] ; field requested: intracellular Ca ion level-increasing activity (FLIPR)
Return: 1 specific activity to metastin (1-54)

Enquiry: Query (binder): YNWNSXGLRF (D-Tyr1; Pya(2)6; Arg(Me)9; C-terminal amide) [Compound No. 281: [D-Tyr1,Pya(2)6,Arg(Me)9]MS10] ; field requested: intracellular Ca ion level-increasing activity (FLIPR)
Return: 0.5 specific activity to metastin (1-54)

Enquiry: Query (binder): {Propanoyl(3-indol-3-yl)}-NSF[azaGly]L[Arg(Me)]F-NH2 [Compound No. 260: des(1-3)-3-(3-Indolyl)propionyl-[AzaGly7,Arg(Me)9]MS10] ; field requested: intracellular Ca ion level-increasing activity (FLIPR)
Return: 5 specific activity to metastin (1-54)

Enquiry: Query (binder): {4‑(3-Indolyl)butyryl}-NSF[azaGly]L[Arg(Me)]F-NH2 [Compound No. 267: des(1-3)-4-(3-Indolyl)butyryl-[AzaGly7,Arg(Me)9]MS10] ; field requested: intracellular Ca ion level-increasing activity (FLIPR)
Return: 2 specific activity to metastin (1-54)

Enquiry: Query (binder): [d3Pal][dN][Cha]NSF[azaGly]L[Arg(Me)]F-NH2 (N-terminus assumed; SMILES CNC(=N)NCCC[C@H](NC(=O)[C@H](CC(C)C)NC(=O)NNC(=O)[C@H](Cc1ccccc1)NC(=O)[C@H](CO)NC(=O)[C@H](CC(N)=O)NC(=O)[C@H](CC1CCCCC1)NC(=O)[C@@H](CC(N)=O)NC(=O)[C@H](N)Cc1cccnc1)C(=O)N[C@@H](Cc1ccccc1)C(N)=O) [Compound No. 290: [D-Pya(3)1,D-Asn2,Cha3,AzaGly7,Arg(Me)9]MS10] ; field requested: intracellular Ca ion level-increasing activity (FLIPR)
Return: 1 specific activity to metastin (1-54)

Enquiry: Query (binder): Cyclohexanecarbonyl-NSF[azaGly]L[Arg(Me)]F-NH2 (SMILES CNC(=N)NCCC[C@H](NC(=O)[C@H](CC(C)C)NC(=O)NNC(=O)[C@H](Cc1ccccc1)NC(=O)[C@H](CO)NC(=O)[C@H](CC(N)=O)NC(=O)C1CCCCC1)C(=O)N[C@@H](Cc1ccccc1)C(N)=O) [Compound No. 278: des(1-3)-Cyclohexanecarbonyl-[AzaGly7, Arg(Me)9]MS10] ; field requested: intracellular Ca ion level-increasing activity (FLIPR)
Return: 2 specific activity to metastin (1-54)

Enquiry: Query (binder): {3‑Phenylpropionyl}-NSF[azaGly]L[Arg(Me)]F-NH2 [Compound No. 269: des(1-3)-3-Phenylpropionyl-[AzaGly7,Arg(Me)9]MS10] ; field requested: intracellular Ca ion level-increasing activity (FLIPR)
Return: 3 specific activity to metastin (1-54)

Enquiry: Query (binder): [dA]NWNSF[azaGly]L[Arg(Me)]F-NH2 [Compound No. 259: [D-Ala1,AzaGly7,Arg(Me)9]MS10] ; field requested: intracellular Ca ion level-increasing activity (FLIPR)
Return: 1 specific activity to metastin (1-54)
